meta.source: ChEMBL document CHEMBL1143204

Record: IC50 reported on 72 kDa type IV collagenase (Homo sapiens).
Sequence (P08253 whole entry): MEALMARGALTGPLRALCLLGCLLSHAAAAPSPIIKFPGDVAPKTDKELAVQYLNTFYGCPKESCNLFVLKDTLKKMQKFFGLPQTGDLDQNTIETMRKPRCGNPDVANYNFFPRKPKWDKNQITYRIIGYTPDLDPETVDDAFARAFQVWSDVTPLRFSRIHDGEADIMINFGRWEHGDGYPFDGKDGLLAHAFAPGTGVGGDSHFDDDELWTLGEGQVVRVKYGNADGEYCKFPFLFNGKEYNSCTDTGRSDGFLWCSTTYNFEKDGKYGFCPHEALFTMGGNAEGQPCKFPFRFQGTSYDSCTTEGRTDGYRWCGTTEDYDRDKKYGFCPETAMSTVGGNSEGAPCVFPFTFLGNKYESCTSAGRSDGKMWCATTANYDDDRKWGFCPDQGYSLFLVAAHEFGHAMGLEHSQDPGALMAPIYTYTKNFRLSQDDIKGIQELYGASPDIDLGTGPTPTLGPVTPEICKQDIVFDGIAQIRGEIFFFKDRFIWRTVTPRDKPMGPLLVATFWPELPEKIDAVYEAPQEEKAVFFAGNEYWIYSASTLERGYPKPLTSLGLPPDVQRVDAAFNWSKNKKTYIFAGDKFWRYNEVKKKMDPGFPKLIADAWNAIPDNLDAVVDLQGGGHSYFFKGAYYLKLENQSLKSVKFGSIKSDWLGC
Output spec: scalar in nM, unitless text.

Q: Query for 72 kDa type IV collagenase (Homo sapiens): what IC50 does the record show for `COc1ccc(Oc2ccc(S(=O)(=O)Cn3cccc(O)c3=O)s2)cc1` ?
Result: 72

Q: Query for 72 kDa type IV collagenase (Homo sapiens): what IC50 does the record show for O=C1C(S(=O)(=O)c2ccc(Oc3ccc(OC(F)(F)F)cc3)cc2)CCCCN1O (centres undefined) ?
Result: 59.4

Q: Query for 72 kDa type IV collagenase (Homo sapiens): what IC50 does the record show for `O=c1c(O)cccn1CS(=O)(=O)c1ccc(Oc2ccc(OC(F)(F)F)cc2)cc1` ?
Result: 12.6

###

# maps each entry to its pIC50
# target-or-system: Stromelysin-1 (Homo sapiens, UniProt P08254)
# Sequence (P08254 whole entry): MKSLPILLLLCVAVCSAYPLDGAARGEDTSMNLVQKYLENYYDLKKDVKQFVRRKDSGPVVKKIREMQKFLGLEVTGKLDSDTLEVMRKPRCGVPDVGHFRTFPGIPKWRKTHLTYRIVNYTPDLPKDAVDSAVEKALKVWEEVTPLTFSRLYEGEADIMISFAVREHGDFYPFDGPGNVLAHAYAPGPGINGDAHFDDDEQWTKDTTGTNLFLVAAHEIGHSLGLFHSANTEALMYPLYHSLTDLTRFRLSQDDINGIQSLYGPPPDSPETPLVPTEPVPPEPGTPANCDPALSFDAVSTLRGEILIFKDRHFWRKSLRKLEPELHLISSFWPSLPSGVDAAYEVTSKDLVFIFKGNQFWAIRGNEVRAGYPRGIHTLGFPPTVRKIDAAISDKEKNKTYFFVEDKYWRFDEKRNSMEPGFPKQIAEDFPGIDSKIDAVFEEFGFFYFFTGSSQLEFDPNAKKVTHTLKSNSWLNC
To interpret pIC50, take it as minus log10 of a concentration measured in moles per litre.

>>> recorded_value("O=C1[C@H](CS(=O)(=O)c2ccc(Oc3ccccc3)cc2)NCCCN1O")
6.02
>>> recorded_value("O=c1c(O)cccn1CS(=O)(=O)c1ccc(Oc2ccc(OC(F)(F)F)cc2)cc1")
6.69

Let's switch to this molecule now.
Q: Query for Stromelysin-1 (Homo sapiens, UniProt P08254): what pIC50 does the record show for `COc1ccc(Oc2ccc(S(=O)(=O)Cc3cccn(O)c3=O)cc2)cc1` ?
Result: 6.51

###

Record: IC50 reported on UniProt:P03956.
Sequence (P03956 whole entry): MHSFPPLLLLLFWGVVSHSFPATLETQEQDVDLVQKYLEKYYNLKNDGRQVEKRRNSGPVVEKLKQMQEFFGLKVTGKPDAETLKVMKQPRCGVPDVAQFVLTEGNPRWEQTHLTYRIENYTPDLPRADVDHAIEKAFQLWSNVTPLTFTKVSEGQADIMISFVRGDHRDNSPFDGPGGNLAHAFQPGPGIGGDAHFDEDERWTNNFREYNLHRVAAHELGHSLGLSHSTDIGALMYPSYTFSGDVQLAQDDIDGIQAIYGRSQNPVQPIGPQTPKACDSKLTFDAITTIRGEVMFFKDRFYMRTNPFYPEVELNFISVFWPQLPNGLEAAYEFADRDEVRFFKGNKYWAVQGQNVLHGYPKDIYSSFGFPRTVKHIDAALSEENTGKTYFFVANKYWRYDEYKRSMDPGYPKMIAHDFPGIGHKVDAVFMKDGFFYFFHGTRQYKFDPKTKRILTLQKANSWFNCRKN

>>> recorded_value("COc1ccc(Oc2ccc(S(=O)(=O)Cc3cccn(O)c3=O)cc2)cc1")
"> 1000 nM"

Q: State the recorded IC50 for this entry: `O=c1c(O)cccn1CS(=O)(=O)c1ccc(Oc2ccc(OC(F)(F)F)cc2)cc1`
Result: > 1000 nM

###

Record: IC50 reported on Collagenase 3 (Homo sapiens).
Output spec: scalar in µM, unitless text.

>>> recorded_value("O=c1c(O)cccn1CS(=O)(=O)c1ccc(Oc2ccc(OC(F)(F)F)cc2)cc1")
0.0073

Q: State the recorded IC50 for this entry: `COc1ccc(Oc2ccc(S(=O)(=O)Cc3cccn(O)c3=O)cc2)cc1`
Result: 0.0134

###

Record: IC50 reported on Matrix metalloproteinase-9 (Homo sapiens, UniProt P14780).
Sequence (P14780 whole entry): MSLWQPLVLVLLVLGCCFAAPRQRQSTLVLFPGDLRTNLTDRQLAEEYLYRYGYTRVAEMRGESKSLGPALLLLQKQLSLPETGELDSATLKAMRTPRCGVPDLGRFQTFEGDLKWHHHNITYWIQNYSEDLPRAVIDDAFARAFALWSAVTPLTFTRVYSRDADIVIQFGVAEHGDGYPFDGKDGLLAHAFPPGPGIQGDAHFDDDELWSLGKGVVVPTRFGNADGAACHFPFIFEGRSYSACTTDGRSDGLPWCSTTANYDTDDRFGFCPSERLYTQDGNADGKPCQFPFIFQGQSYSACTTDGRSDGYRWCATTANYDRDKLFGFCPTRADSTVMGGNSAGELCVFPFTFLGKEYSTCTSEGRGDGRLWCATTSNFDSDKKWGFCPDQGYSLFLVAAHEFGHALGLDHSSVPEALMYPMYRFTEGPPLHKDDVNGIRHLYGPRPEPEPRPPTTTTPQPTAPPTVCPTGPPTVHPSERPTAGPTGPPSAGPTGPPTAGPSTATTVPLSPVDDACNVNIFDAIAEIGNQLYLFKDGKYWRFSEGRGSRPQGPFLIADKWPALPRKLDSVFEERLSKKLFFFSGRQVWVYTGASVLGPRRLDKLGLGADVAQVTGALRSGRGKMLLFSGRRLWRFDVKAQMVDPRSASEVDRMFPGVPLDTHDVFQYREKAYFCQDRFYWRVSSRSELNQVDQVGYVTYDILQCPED
Output spec: scalar in nM, unitless text.

>>> recorded_value("Cc1ccc(S(=O)(=O)Cn2cccc(O)c2=O)cc1")
809
>>> recorded_value("O=c1c(O)cccn1CS(=O)(=O)c1ccc(Oc2ccc(Cl)cc2)cc1")
16.4

Q: Query for Matrix metalloproteinase-9 (Homo sapiens, UniProt P14780): what IC50 does the record show for `O=C1[C@H](CS(=O)(=O)c2ccc(Oc3ccccc3)cc2)NCCCN1O` ?
Result: 21.1

Q: Query for Matrix metalloproteinase-9 (Homo sapiens, UniProt P14780): what IC50 does the record show for `COc1ccc(Oc2ccc(S(=O)(=O)Cn3cccc(O)c3=O)s2)cc1` ?
Result: 13.9

Q: Query for Matrix metalloproteinase-9 (Homo sapiens, UniProt P14780): what IC50 does the record show for `O=c1c(O)cccn1CS(=O)(=O)c1ccc(Oc2ccc(OC(F)(F)F)cc2)cc1` ?
Result: 4
